Assay: Pharmacokinetic study in C57Bl6 mice
Assay type: in vivo
Parameters: concentration or dose not given beside the values
Conditions: mouse, oral gavage, plasma, prodrug, read-out: Prodrug AUCt
Counter-ions that a name gives are not always drawn.
Hi! Just check whether AUC(0-t) is below 10 µg·h/mL. Below gives class 1, equal or above gives class 0.

Ask: Determine if `[2H]C([2H])(CCS(=O)(=O)O)NC(=O)[C@@H](N)Cc1ccccc1` shows AUC(0-t) strictly lower than 10 µg·h/mL.
Result: class 1

Ask: What about N[C@@H](Cc1c[nH]cn1)C(=[18O])NCCCS(=O)(=O)O [Compound 17, hydrobromide] ?
Result: class 0

Ask: What about `C[C@H](N)C(=[18O])NCCCS(=O)(=O)O` ?
Result: class 1

Ask: What about `N[C@@H](Cc1ccccc1)C(=[18O])NCCCS(=O)(=O)O` ?
Result: class 0

Ask: What about `[2H]C([2H])(CCS(=O)(=O)O)NC(=O)[C@H](C)N` ?
Result: class 1

Ask: What about `[2H]C([2H])(CCS(=O)(=O)O)NC(=O)[C@@H](N)C(C)C` ?
Result: class 0

Ask: What about [2H]C([2H])(CCS(=O)(=O)O)NC(=O)[C@@H](N)Cc1c[nH]cn1 [Compound 6, hydrochloride] ?
Result: class 0

Ask: What about `[2H]C([2H])(CCS(=O)(=O)O)NC(=O)[C@@H](N)CO` ?
Result: class 0

###

Assay: Compound stability in whole mouse blood
Format: in vitro ADME
Conditions: fresh mouse blood, initial concentration 1.44 μM, 37° C., test (parent) compound at 4 h
Counter-ions that a name gives are not always drawn.
Hi! Just check whether Compound conc. (μM) at 4 h is below 0.8 µM. Below gives 1, equal or above gives -1.

Ask: Determine if `N[C@@H](Cc1ccccc1)C(=[18O])NCCCS(=O)(=O)O` shows Compound conc. (μM) at 4 h strictly lower than 0.8 µM.
Result: 1

Ask: What about N[C@@H](Cc1c[nH]cn1)C(=[18O])NCCCS(=O)(=O)O [Compound 17, hydrobromide] ?
Result: -1

Ask: What about `[2H]C([2H])(N)CCS(=O)(=O)O` ?
Result: -1
